- target.under.test: M. tuberculosis riboflavin synthase (recombinant) (Mycobacterium tuberculosis, UniProt P9WK35)
- Sequence (P9WK35 whole entry): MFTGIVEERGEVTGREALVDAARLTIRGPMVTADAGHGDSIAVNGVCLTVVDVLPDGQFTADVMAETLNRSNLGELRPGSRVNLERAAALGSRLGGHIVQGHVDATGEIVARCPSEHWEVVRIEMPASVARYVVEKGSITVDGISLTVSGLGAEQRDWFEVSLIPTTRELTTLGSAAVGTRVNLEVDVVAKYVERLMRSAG
- test.summary: Kinetic assay of riboflavin synthase inhibitors, M. tuberculosis enzyme
- Format: biochemical
- assay.setup: substrate 3 varied; Tris·HCl pH 7.0
Reported values of Kis (ES + I ⇌ ESI) for individual entries

Example cases with answers are listed next.
O=C(CCl)Nc1c(NC[C@H](O)[C@H](O)[C@H](O)CO)[nH]c(=O)[nH]c1=O = > 1000 µM
CCOC(=O)C(=O)Nc1c(OC[C@H](O)[C@H](O)[C@H](O)CO)[nH]c(=O)[nH]c1=O = >1000 µM

Data request: Give the reported Kis (ES + I ⇌ ESI) for this molecule. C=C(C)C(=O)Nc1c(SC[C@H](O)[C@H](O)[C@H](O)CO)[nH]c(=O)[nH]c1=O
Data returned: > 1000 µM
